# Tested on: Ad2.1 pre-mRNA splicing
# Protocol details: In vitro splicing (IVS) RT-qPCR, Ad2.1 pre-mRNA in HeLa S3 nuclear extract
# Type: biochemical
# Condition summary: payload of the ADC; read-out: qPCR-IVS-ATS GMean IC50 (nM) Ad2.1

| Smiles entry | IC50 / nM |
| --- | --- |
| C/C(=C\c1cc(F)cc(N2CCN(C(=O)Cn3cccn3)CC2)c1)[C@H]1OC(=O)C[C@H](O)CC[C@H](C)[C@@H](OC(=O)N2CCNCC2)/C=C/[C@@H]1C | 18 |

* * *

# System: PC3 cells
# Protocol details: Cell viability, EPHA2-expressing PC3
# Format: cell-based
# Condition summary: free payload of the ADC
Response field label takes Met when Payload Rmin is strictly below -70% and Not met in all other cases.

| Molecule | Measured on | Label |
| --- | --- | --- |
| CC(=O)N1CCC(n2nnc3c(F)cc(/C=C(\C)[C@H]4OC(=O)C[C@H](O)CC[C@H](C)[C@@H](OC(=O)N5CCNCC5)/C=C/[C@@H]4C)cc32)CC1 | PC3 cells | Met |
| CC(=O)N1CCC(n2nnc3c(F)cc(/C=C(\C)[C@H]4OC(=O)C[C@H](O)CC[C@H](C)[C@@H](OC(=O)N5CCN(C)CC5)/C=C/[C@@H]4C)cc32)CC1 | PC3 cells | Met |
| CC[C@H](O)[C@@H](C)C1OC1C[C@@](C)(O)/C=C/C=C(\C)[C@H]1OC(=O)C[C@H](O)CC[C@@](C)(OC(C)=O)[C@@H](OC(=O)N2CCNCC2)/C=C/[C@@H]1C (stereo in doubt) | PC3 cells | Not met |

* * *

# System: PC3 cells
# Protocol details: Cell viability, EPHA2-expressing PC3
# Assay type: cell-based
# Condition summary: free payload of the ADC

| Molecule | Units | Payload Rmin |
| --- | --- | --- |
| CC[C@H](O)[C@@H](C)[C@H]1O[C@@H]1C[C@@](C)(O)/C=C/C=C(\C)[C@H]1OC(=O)C[C@H](O)CC[C@@](C)(OC)[C@@H](OC(=O)N2CCNCC2)/C=C/[C@@H]1C (stereo in doubt) [D1] | % | −71.987 |
| CC[C@H](O)[C@@H](C)[C@H]1O[C@@H]1C[C@@](C)(O)/C=C/C=C(\C)[C@H]1OC(=O)C[C@H](O)CC[C@@](C)(OC)[C@@H](OC(=O)N2CCN(C)CC2)/C=C/[C@@H]1C [D2] | % | −68.803 |
| CC[C@H](O)[C@@H](C)[C@H]1O[C@@H]1C[C@@](C)(O)/C=C/C=C(\C)[C@H]1OC(=O)C[C@H](O)CC[C@@](C)(OC(=O)N2CCNCC2)[C@@H](OC(C)=O)/C=C/[C@@H]1C [D8] | % | −68.37 |
